system: Proteus mirabilis 29906 (Pm) lysate; experiment: Inhibition of formation of TMA from choline in Proteus mirabilis lysate (d9-choline to d9-TMA, LC-MS/MS); type: biochemical; details: conversion of choline to TMA; Pm lysate 1.5 mg/mL protein, 50 μM d9-choline chloride, 37° C., two hours; read-out: TMA Inhibition (IC50, mol/L)
Readout Type: log10(IC50) (log10 of the value in µM)
Give log10 of IC50, with IC50 taken in µM.

Solved cases below.
{"Compound": "OCC[N+]1(CCCN=C=S)CCCCC1", "log10(IC50)": 3.10}
{"Compound": "CC[N+](CC)(CC#N)CCCN=C=S", "log10(IC50)": 1.78}
{"Compound": "CC[N+](CC)(CCCN=C=S)CCOC", "log10(IC50)": 1.60}
{"Compound": "CC[N+](CC)(CCCl)CCCN=C=S", "log10(IC50)": 1.30}

response.value for `OCc1cccc[n+]1CCCN=C=S` (field: log10(IC50)) = 2.40

GET /value?item= `CC[N+](C)(CC)CCCN=C=S` &field=log10(IC50) returns 1.03

* * *

Listed below: IC50 values for each entry.
system: Proteus mirabilis 29906 (Pm) lysate; experiment: Inhibition of formation of TMA from choline in Proteus mirabilis lysate (d9-choline to d9-TMA, LC-MS/MS); format: biochemical; settings: conversion of choline to TMA; Pm lysate 1.5 mg/mL protein, 50 μM d9-choline chloride, 37° C., two hours; read-out: TMA Inhibition (IC50, mol/L)
// return numeric value only (unit: µM, not printed)

Illustrative cases are given below, each with its answer.
{"Molecule": "CCOC(=O)C(=O)C[N+](C)(C)CCN=C=S [Compound 5]", "Reported Value": 769}
{"Molecule": "C[N+](C)(CCO)CCCN=C=S [Compound 36]", "Reported Value": 100}
{"Molecule": "CCOCC[N+](C)(C)CCN=C=S [Compound 19]", "Reported Value": 63.1}
{"Molecule": "CC[N+](CC)(CCBr)CCCN=C=S [Compound 7]", "Reported Value": 18.2}
{"Molecule": "C[N+](C)(CCCCl)CCN=C=S [Compound 24]", "Reported Value": 63.1}

Proceed to the following item.
For the molecule C[N+](C)(CCCl)CCN=C=S [Compound 23] , the measured IC50 on Proteus mirabilis 29906 (Pm) lysate was 25.1

* * *

Target: Ec YeaWX lysate (Escherichia coli (strain K12), UniProt P0ABR7)
Sequence (P0ABR7 whole entry): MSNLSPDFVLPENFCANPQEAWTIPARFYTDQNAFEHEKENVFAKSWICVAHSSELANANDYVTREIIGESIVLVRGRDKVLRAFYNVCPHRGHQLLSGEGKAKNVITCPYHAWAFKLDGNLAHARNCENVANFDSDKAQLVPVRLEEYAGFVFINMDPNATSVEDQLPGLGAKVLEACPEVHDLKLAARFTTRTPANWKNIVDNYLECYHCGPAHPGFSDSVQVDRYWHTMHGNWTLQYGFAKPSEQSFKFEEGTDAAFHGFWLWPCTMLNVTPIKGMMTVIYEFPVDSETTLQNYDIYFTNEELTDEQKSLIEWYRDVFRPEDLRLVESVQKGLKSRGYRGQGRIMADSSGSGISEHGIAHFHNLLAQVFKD
Assay: Inhibition of formation of TMA from carnitine in Ec YeaWX lysate (d9-carnitine to d9-TMA, LC-MS/MS)
Details: conversion of carnitine to TMA; Ec YeaWX lysate 2.0 mg/mL protein, 250 μM NADPH, 50 μM d9-carnitine chloride, 37° C., two hours; read-out: TMA Inhibition (IC50, mol/L)
From the text: EXAMPLE 3 provides an exemplary assay for identifying and characterizing compounds from Formula (I), or Formula (II), that inhibit the formation of TMA from carnitine. Escherichia coli BL21*DE3::pET30a-Ec yeaWX #1 (Ec YeaWX) strain was generated as described below. […]
Readout Type: pIC50
Interpret pIC50 as the negative base-10 log of the concentration measured in mol/L.

// below: answered compounds
{"Compound": "CCOC(=O)C(=O)C[N+](C)(C)CCN=C=S [Compound 5]", "Assayed System": "Ec YeaWX lysate (Escherichia coli (strain K12), UniProt P0ABR7)", "Reported Value": 2.26}
{"Compound": "CCOC(=O)C(=O)C[N+](C)(C)CCCN=C=S [Compound 6]", "Assayed System": "Ec YeaWX lysate (Escherichia coli (strain K12), UniProt P0ABR7)", "Reported Value": 3.70}

get_value(item= CC[N+](CC)(CC#N)CCCN=C=S [Compound 9] , readout=pIC50) returns 3.22

So for CC[N+](CC)(CCBr)CCCN=C=S [Compound 7] , the logged pIC50 turned out to be 3.77

The reported value for CC[N+](C)(CC)CCCN=C=S [Compound 2] in terms of pIC50 is 3.70
